TARGET OF ASSAY: CYP2B6 (Homo sapiens, UniProt P20813)
Sequence (P20813 whole entry): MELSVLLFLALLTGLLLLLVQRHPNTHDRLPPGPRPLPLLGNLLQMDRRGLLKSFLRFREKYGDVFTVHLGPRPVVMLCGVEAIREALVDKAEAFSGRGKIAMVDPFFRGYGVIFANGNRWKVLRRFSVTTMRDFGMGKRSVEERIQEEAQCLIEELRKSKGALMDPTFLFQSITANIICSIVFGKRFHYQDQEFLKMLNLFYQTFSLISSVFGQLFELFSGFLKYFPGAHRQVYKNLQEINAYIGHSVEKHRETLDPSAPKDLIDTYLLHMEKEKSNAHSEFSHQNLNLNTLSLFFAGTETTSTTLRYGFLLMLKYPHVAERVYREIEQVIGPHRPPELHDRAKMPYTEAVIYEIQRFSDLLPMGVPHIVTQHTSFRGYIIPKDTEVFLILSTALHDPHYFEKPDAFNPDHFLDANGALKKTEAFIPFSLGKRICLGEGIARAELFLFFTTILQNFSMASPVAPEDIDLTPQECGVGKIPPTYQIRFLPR
Format: biochemical
COND: human, microsomes from CYP2B6-overexpressing HEK293 cells, pH 7.4, probe nicotine (cotinine formation)
ENDPOINT LABEL: inhibition at 30 min, 10 µM
// return the numeric value with its unit appended

So what inhibition at 30 min, 10 µM did C=C(C)[C@@H]1CCC(C)=C[C@H]1c1c(O)cc(CCCCC)cc1O [CBD, cannabidiol] get with CYP2B6 (Homo sapiens, UniProt P20813)?
65%

====

TARGET OF ASSAY: CYP2A6 (Homo sapiens)
Sequence (P11509 1-494): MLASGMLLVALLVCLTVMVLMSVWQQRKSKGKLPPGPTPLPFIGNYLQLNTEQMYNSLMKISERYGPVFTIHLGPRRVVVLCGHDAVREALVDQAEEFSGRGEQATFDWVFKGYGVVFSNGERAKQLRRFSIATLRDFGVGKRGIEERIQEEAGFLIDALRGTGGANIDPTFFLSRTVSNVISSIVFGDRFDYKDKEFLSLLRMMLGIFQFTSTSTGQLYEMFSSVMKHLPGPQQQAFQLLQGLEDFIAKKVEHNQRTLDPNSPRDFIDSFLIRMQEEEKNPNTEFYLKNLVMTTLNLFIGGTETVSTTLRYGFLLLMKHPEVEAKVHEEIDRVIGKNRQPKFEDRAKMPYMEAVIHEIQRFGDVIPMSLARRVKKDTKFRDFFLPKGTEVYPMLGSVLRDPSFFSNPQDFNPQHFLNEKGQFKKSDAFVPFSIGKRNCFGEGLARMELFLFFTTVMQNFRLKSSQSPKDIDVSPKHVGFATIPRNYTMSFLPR
Assay type: biochemical
COND: IC50, 3HC formation; cotinine 100 μM; rec CYP2A6 microsomes
ENDPOINT LABEL: IC50

What measured IC50 goes with C=C(C)[C@@H]1CCC(C)=C[C@H]1c1c(O)cc(CCCCC)cc1O [CBD, cannabidiol] ?
3.4 µM

====

Measured IC50 accompanies every entry in the list below.
System: human liver microsomes (HLM)
TEST PROTOCOL: Inhibition of cotinine to 3HC formation in pooled human liver microsomes
Format: biochemical
COND: cotinine 900 μM
Report the value in µM with no unit label.

C=C(C)[C@@H]1CCC(C)=C[C@H]1c1c(O)cc(CCCCC)cc1O ... 8.8

What measured IC50 goes with C=C(C)[C@@H]1CCC(CO)=C[C@H]1c1c(O)cc(CCCCC)cc1O [7-OH-CBD, 7-hydroxy-cannabidiol] ?
9.1

====

TARGET OF ASSAY: UGT2B7 (Homo sapiens, UniProt P16662)
Sequence (P16662 24-529): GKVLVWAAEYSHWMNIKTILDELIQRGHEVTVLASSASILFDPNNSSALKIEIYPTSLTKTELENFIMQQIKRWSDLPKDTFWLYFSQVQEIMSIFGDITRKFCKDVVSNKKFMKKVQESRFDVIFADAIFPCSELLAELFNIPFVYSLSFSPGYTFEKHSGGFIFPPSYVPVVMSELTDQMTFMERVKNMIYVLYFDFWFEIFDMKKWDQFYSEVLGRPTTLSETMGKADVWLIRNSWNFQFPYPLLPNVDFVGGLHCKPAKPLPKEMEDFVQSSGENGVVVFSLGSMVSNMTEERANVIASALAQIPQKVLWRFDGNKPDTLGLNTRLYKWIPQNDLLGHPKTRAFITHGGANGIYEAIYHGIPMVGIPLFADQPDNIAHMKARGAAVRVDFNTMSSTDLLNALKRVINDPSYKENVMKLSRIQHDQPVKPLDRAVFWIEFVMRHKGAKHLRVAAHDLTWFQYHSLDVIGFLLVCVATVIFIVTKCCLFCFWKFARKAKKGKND
Assay type: biochemical
COND: human, microsomes from UGT2B7-overexpressing HEK293 cells, pH 7.4, probe 3HC (30 mM), 3HC-Gluc formation
ENDPOINT LABEL: inhibition at 200 µM

What measured inhibition at 200 µM goes with Cc1ccc(NC(=O)c2ccc(CN3CCN(C)CC3)cc2)cc1Nc1nccc(-c2cccnc2)n1 ?
≤ 65%

====

TARGET OF ASSAY: CYP2A6 (Homo sapiens, UniProt P11509)
Type: biochemical
COND: cotinine formation; nicotine 100 μM; rec CYP2A6 microsomes; mean ± SD of three experiments
ENDPOINT LABEL: pIC50
Note on units: pIC50 is unitless, being -log10 of a concentration expressed in mol/L.

What measured pIC50 goes with C=C(C)[C@@H]1CCC(CO)=C[C@H]1c1c(O)cc(CCCCC)cc1O [7-OH-CBD, 7-hydroxy-cannabidiol] ?
5.24
